- ASSAY INFO: endothelial E-selectin expression blockers – imaging, HUVEC, immunofluorescence, MLSMR starter and 10KST1 sets, primary screen (AID 487);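 further: 100% = median nuclei count of all wells on the same plate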
- CONDITION PARAMETERS: HUVEC TNFalpha-induced E-selectin immunofluorescence imaging, at 2 µM; measured here: cell number, toxicity
Answer each item with its documented nuclei count.
One number for each entry, in %.

INSERT INTO assay_data (compound, metric, result_number) VALUES
  ('C[N+]1(C)[C@@H]2CC(OC(=O)[C@H](CO)c3ccccc3)C[C@H]1[C@@H]1O[C@@H]12 (stereo not given in full)', 'nuclei count', 129),
  ('CC(C)(C)OC(=O)c1c(N)n(Cc2ccco2)c2nc3ccccc3nc12', 'nuclei count', 127),
  ('CN1CCN(c2c[nH]c(=O)[nH]c2=O)CC1', 'nuclei count', 105),
  ('O=C(NCc1ccccn1)c1ccccc1Cl', 'nuclei count', 92.5),
  ('CCCNS(=O)(=O)c1ccc(OCC(=O)N2CCN(Cc3ccccc3)CC2)cc1', 'nuclei count', 110);

Return reported nuclei count values for all items listed beneath this line.
1. CCOc1ccccc1-n1c(O)c(C=Nc2ccc(N(CC)CC)cc2)c(=O)[nH]c1=O
2. CCN1c2nc3c(C)cccn3c(=O)c2CC2(C(=O)N(C)C(=O)N(C)C2=O)C1C (stereo not given)

Ans:
85.2
111

Return reported nuclei count values for all items listed beneath this line.
1. O=C(O)c1nonc1-c1nonc1C(=O)O
2. CN1C[C@H](CNC(=O)OCc2ccccc2)C[C@@H]2c3cccc4c3c(cn4C)C[C@H]21
3. C[C@H]1CCCC(=O)CCCCCc2cc(O)cc(O)c2C(=O)O1

Ans:
104
110
116
